test: chemical genetic growth profiling, strain panel (AID 1159580);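 further: tested at 20 µM; growth read once vehicle control cultures reached saturation at 30 °C; 1 = growth at the plate median or of vehicle wells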; settings: S. cerevisiae deletion strains, growth OD, locus YLR085C, strain ARP6
Out of some 5,500 compounds screened, about 2,000 (36%) were called active. About 18% were inconclusive and are not listed. No stated cut-off is given here; in the data, active means normalized growth mostly below about 0.91 (no sharp cut-off); inconclusive means no clear call, values can overlap the other calls; inactive means mostly above about 0.92. Some of the results follow.
One label from this list, please: true (1) = active, false (0) = inactive

Prompt: // return assay outcome for `COc1cc(/C=C(\C#N)C(N)=S)cc(OC)c1OC`
Response: true (1)

Prompt: Which result was noted for this compound in the test: `Cc1cc(C)c(CSCCNC(=O)Nc2ccc(F)cc2F)c(C)c1`
Response: true (1)

Prompt: Hi, do you know how `Cc1cc(Br)c(NC(=O)C(Cl)(Cl)Cl)c(Br)c1` came out in this test?
Response: true (1)

Prompt: Called result for `CCOC(=O)N/N=C\c1ccccc1OCC`
Response: false (0)

Prompt: Dear colleague, could you share the recorded outcome for `COc1ccccc1Oc1ccc(C(F)(F)F)cc1NC(=O)NC(=O)c1ccccc1F` when you have a moment?
Response: false (0)

Prompt: GET /call?item= O=C1CC(Nc2ccccc2)C=C1Nc1ccccc1 (configuration not stated) returns the recorded outcome of this test.
Response: false (0)

Prompt: For this compound, state the assay outcome: CCOC(=O)C1C(c2cccnc2)C(C(=O)OCC)C(O)(C(F)(F)F)NC1(O)C(F)(F)F (configuration not stated)
Response: false (0)

Prompt: Identify the outcome logged in this assay for the compound shown: `COCCCNC(=S)N/N=C\c1cccc(OC)c1O`
Response: false (0)

Prompt: Call for entry `CCN(CC)C(=O)c1[nH]c(C)c(C)c1C` :
Response: false (0)

Prompt: // return assay outcome for `CSc1nsc(SC)c1C(=O)NC(=O)Nc1ccc(F)cc1F`
Response: false (0)

Prompt: // outcome(item) with item = CCOC(=O)C1=C(N)Oc2ccc(Br)cc2C1C(C#N)C(=O)OCC (configuration not stated)
Response: true (1)

Prompt: What outcome does the record of this test show for `CCOC(=O)/C(C#N)=C/c1ccc(Br)cc1` ?
Response: true (1)

---

For each record, write down the corresponding normalized growth.
experiment: chemical genetic growth profiling, strain panel (AID 1159580); conditions: S. cerevisiae deletion strains, growth OD, locus YKR091W, strain srl3, hits give low values
In all, about 5,500 compounds went through this assay and about 2,000 (36%) were called active. Not shown: some 18% with an inconclusive outcome. The list shows a part of the results.

Prompt: Complete the entry with normalized growth for `COc1ccc(-c2oc3c(CC=C(C)C)c(O[C@@H]4O[C@H](CO)[C@@H](O)[C@H](O)[C@H]4O)cc(O)c3c(=O)c2O[C@@H]2O[C@@H](C)[C@H](O)[C@@H](O)[C@H]2O)cc1`
Response: 1.03 (inactive)

Prompt: Tell me its normalized growth given `COc1ccc(-c2cc(=O)c3c(O)cc(O[C@H]4O[C@H](CO[C@@H]5O[C@@H](C)[C@H](O)[C@@H](O)[C@H]5O)[C@@H](O)[C@H](O)[C@H]4O)cc3o2)cc1` as the entry.
Response: 1 (inactive)

Prompt: Provide one value: measured normalized growth of CCCCC1C(=O)N(c2ccccc2)N(c2ccc(O)cc2)C1=O (stereo not given)
Response: 0.996 (inactive)

Prompt: Return normalized growth (reported value) for this compound: `NC(=NCCC[C@H](N)C(=O)O)N[N+](=O)[O-]`
Response: 1.02 (inactive)

Prompt: Return normalized growth for the following compound: C=CC1C2=CCOC(=O)C2=COC1OC1OC(CO)C(O)C(O)C1O (stereo not given)
Response: 1.02 (inactive)

---

Could you please report measured normalized growth for the items listed next?
assay: chemical genetic growth profiling, strain panel (AID 1159580); conditions: S. cerevisiae deletion strains, growth OD, locus YLR370C, strain arc18, hits give low values
Out of some 5,500 compounds screened, about 2,000 (36%) were called active. Inconclusive results (about 18%) are left out. This is one part of the list.
Number, no unit, nothing else.

Prompt: Tell me its normalized growth given N#Cc1nn(-c2c(Cl)cc(C(F)(F)F)cc2Cl)c(N)c1S(=O)C(F)(F)F (configuration not stated) as the entry.
Response: 1.01

Prompt: Give reported normalized growth value for CCN(Cc1ccncc1)C(=O)C(CO)c1ccccc1 (configuration not stated)
Response: 1.03

Prompt: Find the measured normalized growth of `O=C(O[C@@H]1Cc2c(O)cc(O)cc2O[C@@H]1c1cc(O)c(=O)c2c(O)c(O)cc([C@H]3Oc4cc(O)cc(O)c4C[C@H]3OC(=O)c3cc(O)c(O)c(O)c3)c2c1)c1cc(O)c(O)c(O)c1` and report it.
Response: 0.499

Prompt: Please give the documented normalized growth of O=C(Cc1cccs1)NC1C(=O)N2C(C(=O)[O-])=C(C[n+]3ccccc3)CSC12 (configuration not stated)
Response: 0.989

Prompt: Report normalized growth for `O=C(O[C@@H]1Cc2c(O)cc(O)cc2O[C@@H]1c1cc(O)c(=O)c2c(O)c(O)cc([C@H]3Oc4cc(O)cc(O)c4C[C@H]3O)c2c1)c1cc(O)c(O)c(O)c1`
Response: 0.593

Prompt: Find the measured normalized growth of O=C(OC1Cc2c(O)cc(O)cc2OC1c1cc(=O)c(O)c2c(O)c(O)cc(C3Oc4cc(O)cc(O)c4CC3O)c2c1)c1cc(O)c(O)c(O)c1 (configuration not stated) and report it.
Response: 0.916

Prompt: Return the recorded normalized growth value; entry: `O=c1c(O)c(-c2ccc(O)c(O)c2)oc2c(O[C@@H]3O[C@H](CO)[C@H](O)[C@@H](O)[C@H]3O)c(O)cc(O)c12`
Response: 1.02

---

experiment: chemical genetic growth profiling, strain panel (AID 1159580);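 further: tested at 20 µM; growth read once vehicle control cultures reached saturation at 30 °C; 1 = growth at the plate median or of vehicle wells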; settings: S. cerevisiae deletion strains, growth OD, locus YER016W, strain bim1, hits give low values
The campaign covered roughly 5,500 compounds. About 2,000 (36%) were called active. About 18% were inconclusive and are not listed. The list shows a part of the results.
Assay Metric: normalized growth
The reply should be a number, written without any unit.

Prompt: Supply normalized growth value. Item: N#Cc1nn(-c2c(Cl)cc(C(F)(F)F)cc2Cl)c(N)c1S(=O)C(F)(F)F (stereo not given)
Response: 1.01

Prompt: Kindly indicate its recorded normalized growth. Item: CC(=O)[C@@]1(O)CCC2C3C[C@H](C)C4=CC(=O)C=CC4(C)[C@@]3(F)[C@@H](O)C[C@@]21C (stereo not given in full)
Response: 0.933

Prompt: Look up normalized growth of O=c1ccc2cc(OC3OC(CO)C(O)C(O)C3O)c(O)cc2o1 (stereo not given) and report it.
Response: 0.993

Prompt: Give normalized growth for the following compound: `O=c1c(O)c(-c2ccc(O)c(O)c2)oc2c(O)c(O)cc(O)c12`
Response: 1.02

Prompt: Complete the entry with normalized growth for `C=C(C)[C@H]1COc2cc3oc(=O)ccc3cc2O1`
Response: 0.791

---

assay: chemical genetic growth profiling, strain panel (AID 1159580);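 further: tested at 20 µM; growth read once vehicle control cultures reached saturation at 30 °C; 1 = growth at the plate median or of vehicle wells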; conditions: S. cerevisiae deletion strains, growth OD, locus YJL095W, strain BCK1, hits give low values
About 2,000 (36%) of roughly 5,500 compounds were called active. Another 18% or so got no clear call; they are omitted. The list shows a part of the results.
Please assign Condition not met whenever normalized growth is at or above 1, and Condition met whenever it is below.

Prompt: Is normalized growth strictly under 1 for the entry `CCOC(=O)N/N=C\c1cc(Cl)cc(Cl)c1O` ?
Response: Condition met

Prompt: Confirm or reject: normalized growth of `COCCCNC(=S)N/N=C\c1cc(Cl)cc(Cl)c1O` lies strictly below 1
Response: Condition met

Prompt: Lab note: confirm whether the reported normalized growth for this molecule is below 1, equality not counting. molecule: `CCC(=O)O[C@H](CC(=O)O)C[N+](C)(C)C`
Response: Condition not met

Prompt: Is normalized growth of CC(=O)OC1CN2CCC1CC2 (stereo unspecified) strictly below 1?
Response: Condition not met

Prompt: Determine whether this molecule shows normalized growth lower than 1 (ties excluded): `CCC/C=C1\OC(=O)C2=C1CCC=C2`
Response: Condition met

Prompt: Identify whether the molecule `O=c1c(O)c(-c2cc(O)c(O)c(O)c2)oc2cc(O)cc(O)c12` records normalized growth below 1.
Response: Condition not met

Prompt: Criterion: normalized growth strictly below 1. Is it met by `O/N=C(/c1ccc(Cl)cc1)c1cc2ccccc2o1` ?
Response: Condition met

---

Task for the reader: assign each of the following compounds its reported normalized growth.
experiment: chemical genetic growth profiling, strain panel (AID 1159580);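 further: tested at 20 µM; growth read once vehicle control cultures reached saturation at 30 °C; 1 = growth at the plate median or of vehicle wells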; conditions: S. cerevisiae deletion strains, growth OD, locus YOL012C, strain htz1
In all, about 5,500 compounds went through this assay and about 2,000 (36%) were called active. Roughly 18% stayed inconclusive and do not appear here. This is one part of the list.
Reply briefly: the number, and no unit.

Prompt: Hello, please tell me recorded normalized growth for this one: `COc1ccc2ccc(=O)oc2c1`
Response: 0.887

Prompt: Please look at this compound and report its normalized growth: CC(=O)O[C@@H]1CC2C(C)(C)C(=O)C=C[C@]2(C)C2CC[C@@]3(C)[C@H](c4ccoc4)OC(=O)[C@H]4O[C@]43[C@@]21C (stereo partly specified)
Response: 0.906

Prompt: Input `CNC(=O)Oc1cccc2c1OC(C)(C)O2` , output reported normalized growth.
Response: 1.24

Prompt: Report normalized growth for `COc1c2ccoc2cc2oc(=O)ccc12`
Response: 0.31

Prompt: State its normalized growth for this compound: CC1(C)C(=O)C=C[C@@]2(C)C1C=C[C@]1(C)C2CC[C@@]2(C)[C@H](c3ccoc3)OC(=O)C3OC321 (stereo partly specified)
Response: 0.78

Prompt: Report normalized growth for CC1(C)C=CC(=O)[C@@]2(C)C1CC(=O)[C@]1(C)C2CC[C@@]2(C)[C@H](c3ccoc3)OC(=O)C3OC321 (stereo partly specified)
Response: 1.08

Prompt: Give me measured normalized growth, please, for this compound: CCN(Cc1ccncc1)C(=O)C(CO)c1ccccc1 (stereo unspecified)
Response: 0.82

Prompt: Report measured normalized growth; entry is CC1(C)C2CC(=O)[C@]3(C)C(CC[C@@]4(C)[C@H](c5ccoc5)OC(=O)[C@H]5O[C@]543)[C@@]2(C)C(=O)C[C@H]1O (stereo partly specified)
Response: 2.06

Prompt: Given CC1(C)C(=O)C=C[C@@]2(C)C1CC(=O)[C@]1(C)C2CC[C@@]2(C)[C@H](c3ccoc3)OC(=O)[C@H]3O[C@]321 (stereo partly specified) , respond with its normalized growth.
Response: 1.38

Prompt: Indicate its recorded normalized growth; the compound in question is `CCOC(=O)c1c(C)cc(O)cc1O`
Response: 1.06

Prompt: Identify measured normalized growth corresponding to `NC(=O)CN1CCCC1=O`
Response: 0.826

Prompt: Give the value of normalized growth reported for the following: CC(=O)OC(C)C[N+](C)(C)C (stereo unspecified)
Response: 1.09

Prompt: Using known records, supply normalized growth for `C[C@@H]([C@H](O)c1ccccc1)N(C)C`
Response: 0.634

Prompt: For the compound `CCOC(=O)c1c(C)cc(OC)cc1O` , give its measured normalized growth value.
Response: 0.775

Prompt: Answer with the recorded normalized growth of C[N+](C)(C)CC(O)CC(=O)O (stereo unspecified) only.
Response: 0.718

Prompt: Tell me measured normalized growth for `CCC(=O)c1c(O)cc(O)cc1O` please.
Response: 0.785

Prompt: Look up and report measured normalized growth for this entry: `CCc1cc(C(N)=S)ccn1`
Response: 1.05

Prompt: Using the record for `COc1cc2occc2c2oc(=O)ccc12` , state its measured normalized growth.
Response: 0.958

Prompt: Recall and state the measured normalized growth for CO[C@@]1(NC(=O)C(C(=O)O)c2ccc(O)cc2)C(=O)N2C(C(=O)O)=C(CSc3nnnn3C)CO[C@@H]21 (stereo partly specified) .
Response: 0.996

Prompt: Indicate its recorded normalized growth; the compound in question is `Cc1cc(OC(=O)c2c(C)cc(OC(=O)c3c(C)cc(O)cc3O)cc2O)cc(O)c1C(=O)O`
Response: 0.878

Prompt: Note normalized growth for the compound shown: `CC[n+]1c(-c2ccccc2)c2cc(N)ccc2c2ccc(N)cc21`
Response: 0.55
